# credit: the supplement of paper PMC6555819

- System: PPARa:RXRa (NR concentration 270 nM, RXRa partner concentration 90 nM)
- Experiment notes: PBM binding z-score (relative to random genomic background probes); higher = stronger binding; sequences stand for … in GC…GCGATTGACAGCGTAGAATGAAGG
Readout: PBM binding z-score
Number only, please.

Example sequences with recorded PBM binding z-score:
TACCCTAGGTCATTGGGCCAGTATAGTACGCATC = 4.06
CGAACTAGGTCATCCAGGACCGTGAATACATTGA = 4.4
CCTAGTGGGCCAAGGTCATTGATCAGTCAAAGCA = 3.87
AGCGAAAGGTCGAGGTGAGTATAGAGAAAGGGAA = 4.51
CCTACTGGGCCATTCAGAGGGCATTGATCATATG = 0.726

So what PBM binding z-score did `CGTCCAAGGTCATAGGGGGTCAGTGAAGACAGAT` get with PPARa:RXRa (NR concentration 270 nM, RXRa partner concentration 90 nM)?
6.34

Now consider `TAGCCTAGGTCATACAGGGGCCAGTATAGAAAGC` .
3.72

And what about the sequence `CAAACTAGGTCACTAAAGGTCAAAGTCGAATGAC` ?
6.51

Repeat with `CCTTACGGGTCACTCCAGGTTATATCATCGGAGT`
4.5

Next: `CGAACTACGTCATCCAGGACAGTGAATACATTGA`
-0.0578

Another sequence: `CGAACTAGGTCGTCCAGGACAGTGAATACATTGA`
2.09

And the next one, `CGAACTAGGTCACCCAGGACAGTGAATACATTGA` ?
4.82

// same read-out, input: `CCTAGTTGGTCAAGGTCACATACGCTATAGGTAC`
4

Then this sequence: `CCTACTGGTCCAAGGTCATTGATCAGTCAAAGCA`
3.59

Check `AGAATGAGGTCATTAAGATCAGGGAATTGCGGTC` too.
6.05

Check `CAAACCAGGTCACAGAGGTCAAAGTCCGTGCGTA` too.
6.49
